test: Oral bioavailability in dog; format: ADME, organism-based, Canis lupus familiaris; details: in vivo
readout: bioavailability

## Input For the molecule COc1cc(C(=O)NS(=O)(=O)c2ccccc2)ccc1Cn1ncc2ccc(NC(=O)NC3CCCC3)cc21 , what bioavailability is on record?
## Output < 1%

## Input May I ask what bioavailability has been recorded for COc1cc(C(=O)NS(=O)(=O)c2ccccc2)ccc1Cc1cn(C)c2ccc(NC(=O)OC3CCCC3)cc12 ?
## Output > 30%

## Input Returns the measured bioavailability for the input molecule. Input: COc1cc(C(=O)NS(=O)(=O)c2ccccc2C)ccc1Cc1cn(C)c2ccc(NC(=O)OC3CCCC3)cc12
## Output 67%

---

assay: Displacement of [3H]LTD4 from cysteinyl leukotriene receptor (unknown origin) after 60 mins; parameters: species or system Homo sapiens
readout: IC50 (µM)
Report only the number, with the unit µM understood.

## Input I would be grateful if you could share the reported IC50 for C(=C\c1ccc2ccccc2n1)/c1ccccn1 .
## Output 6

---

Would you mind telling me the reported IC50 of each entry?
target: UniProt:Q2NNR5; assay: Displacement of [3H]ICI from cysteinyl leukotriene receptor 1 in Hartley guinea pig lung membrane after 30 mins by liquid scintillation counting method
Sequence (Q2NNR5 whole entry): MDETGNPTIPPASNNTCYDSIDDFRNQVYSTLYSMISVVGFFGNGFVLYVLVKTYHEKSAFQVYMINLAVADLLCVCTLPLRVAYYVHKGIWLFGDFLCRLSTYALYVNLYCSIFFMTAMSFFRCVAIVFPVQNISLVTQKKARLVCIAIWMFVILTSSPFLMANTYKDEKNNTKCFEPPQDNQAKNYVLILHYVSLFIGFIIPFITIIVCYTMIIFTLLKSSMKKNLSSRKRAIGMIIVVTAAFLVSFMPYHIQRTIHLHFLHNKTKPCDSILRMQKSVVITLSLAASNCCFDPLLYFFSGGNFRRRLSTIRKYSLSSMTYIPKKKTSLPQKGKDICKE
Report as a plain number; the unit nM is understood.

## Input Need IC50, item CCCCCc1ccc(/C=C/C(=O)Nc2cccc3c(=O)cc(C(=O)O)oc23)cc1
## Output 240

## Input What value of IC50 has been reported for the following compound? CCCCCc1ccc(/C=C/C(=O)Nc2cccc3c(=O)cc(-c4nn[nH]n4)oc23)cc1
## Output 30

---

test: Inhibition of cysteinyl leukotriene receptor (unknown origin); set-up: species or system Homo sapiens
Assign IC50 to each entry below.
Just the number in nM, nothing appended.

## Input Look up IC50 for this compound: NCCSC(SCCC(=O)O)c1cccc(/C=C/c2ccc3ccc(Cl)cc3n2)c1 (configuration not stated)
## Output 0.3

## Input Need IC50, item O=C(O)CCSC(SCCC(=O)O)c1cccc(/C=C/c2ccc3ccc(Cl)cc3n2)c1
## Output 3

---

assay: Binding affinity to RXR (unknown origin); design: species or system Homo sapiens
Hi there, I'd appreciate the recorded pKd for every entry that follows.
Reminder that pKd means the negative base-10 logarithm of the concentration expressed in mol/L.

## Input Fill blank: measured pKd of the compound CC/C=C\C/C=C\C/C=C\C/C=C\C/C=C\C/C=C\CCC(=O)O [DOCONEXENT] is ____.
## Output 5.00

## Input Any idea what its pKd is? The compound is CCCCCCCC/C=C\CCCCCCCC(=O)O [OLEIC ACID]
## Output 5.00

---

test: Oral bioavailability in rat; assay type: ADME, organism-based; conditions: in vivo
readout: bioavailability

## Input Would you mind telling me what bioavailability value was observed for COc1cc(C(=O)NS(=O)(=O)c2ccccc2C)ccc1Cc1cn(C)c2ccc(NC(=O)OC3CCCC3)cc12 ?
## Output 68%

## Input Item under review: COc1cc(C(=O)NS(=O)(=O)c2ccccc2)ccc1Cn1ncc2ccc(NC(=O)NC3CCCC3)cc21 . Reported bioavailability?
## Output < 1%

## Input Tell me the measured bioavailability of COc1cc(C(=O)NS(=O)(=O)c2ccccc2)ccc1Cc1cn(C)c2ccc(NC(=O)OC3CCCC3)cc12 , please.
## Output > 30%

---

Target: Arachidonate 5-lipoxygenase-activating protein (Homo sapiens, UniProt P20292)
Sequence (P20292 whole entry): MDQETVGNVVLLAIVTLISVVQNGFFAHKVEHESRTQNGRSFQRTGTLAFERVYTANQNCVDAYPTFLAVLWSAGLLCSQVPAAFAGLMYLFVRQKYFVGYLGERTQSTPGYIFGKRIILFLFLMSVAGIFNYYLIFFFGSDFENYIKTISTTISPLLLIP
Assay: Binding affinity to recombinant human 6His-tagged FLAP expressed in Escherichia coli BL21 (DE3) by isothermal titration calorimetric method
readout: Kd (µM)
Give the number; µM is assumed, so skip it.

## Input Consider the compound CC(C)=CCc1cc2c(cc1O)oc(=O)c1c3ccc(O)cc3oc21 and give its measured Kd.
## Output 21
